Biological target: Protein arginine N-methyltransferase 1 (Homo sapiens, UniProt Q99873)
Sequence (Q99873 whole entry, the tested form may be a part): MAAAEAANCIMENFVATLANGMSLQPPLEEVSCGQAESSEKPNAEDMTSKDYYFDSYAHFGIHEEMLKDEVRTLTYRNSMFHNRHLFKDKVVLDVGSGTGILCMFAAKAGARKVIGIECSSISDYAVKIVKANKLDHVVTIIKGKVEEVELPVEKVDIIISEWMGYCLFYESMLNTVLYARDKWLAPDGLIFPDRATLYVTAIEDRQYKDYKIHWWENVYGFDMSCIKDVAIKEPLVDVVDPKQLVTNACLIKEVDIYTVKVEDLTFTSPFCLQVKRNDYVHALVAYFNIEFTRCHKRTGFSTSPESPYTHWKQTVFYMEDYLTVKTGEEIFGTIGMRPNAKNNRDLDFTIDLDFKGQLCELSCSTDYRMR
Experiment: Inhibition of PRMT1 (unknown origin)
pIC50: −log10 of the molar value. *1 amine or outer side, *2 acyl side, *3 side chain or, on linkers, in order; H or OH if unused. Where a SMILES comes first, the peptide text is derived from it. [ ]: non-standard residue; d: D form. X2 = N=C(NCCC[C@H](N[*:1])C(=O)[*:2])NCCC[C@H]1O[C@@H](n2cnc3c(N)ncnc32)[C@H](O)[C@@H]1O
VALUE_TYPE: pIC50

COMPOUND | pIC50
N=C(N)NCCC[C@H](NC(=O)CN)C(=O)N[C@@H](CCCNC(=N)NCCCSC[C@H]1O[C@@H](n2cnc3c(N)ncnc32)[C@H](O)[C@@H]1O)C(N)=O | 5.23

(P) N=C(NCCCSC[C@H]1O[C@@H](n2cnc3c(N)ncnc32)[C@H](O)[C@@H]1O)NCCC[C@H](N)C(N)=O
(Q) CC(=O)N[C@@H](CO)C(=O)NCC(=O)N[C@@H](CCCNC(=N)NCCC[C@H]1O[C@@H](n2cnc3c(N)ncnc32)[C@H](O)[C@@H]1O)C(=O)NCC(=O)N[C@@H](CCCCN)C(=O)NCC(=O)NCC(=O)N[C@@H](CCCCN)C(N)=O (Ac-SG[X2]GKGGK-NH2)
stdin: Please compare: P and Q . Report which one has the smaller pIC50 value. Kindly state the label of the option you pick.
stdout: Q
(Q: 5.27, P: 5.52)

###

Molecular target: Protein arginine N-methyltransferase 1 (Homo sapiens, UniProt Q99873)
Experiment: Inhibition of 6His-tagged PRMT1 (11 to 353 residues) (unknown origin) extracted from Escherichia coli BL21 (DE3) cells
VALUE_TYPE: pIC50
As a rule, pIC50 stands for the negative log10 of the concentration, concentration in M.

Form field pIC50 for item `NS(=O)(=O)c1ccc(CCNC/C=C/c2ccccc2)cc1` on Protein arginine N-methyltransferase 1 (Homo sapiens, UniProt Q99873): 4.58

###

Biological target: Protein arginine N-methyltransferase 1 (Homo sapiens, UniProt Q99873)
Experiment: Inhibition of His-tagged PRMT1 (unknown origin) extracted from Escherichia coli BL21 (DE3) cells
VALUE_TYPE: pIC50
As a rule, pIC50 stands for the negative log10 of the concentration, concentration in M.

What the record says about `O=C1Nc2cnc(Nc3ccc(N4CCC(O)CC4)cc3)nc2N2c3ccccc3C[C@@H]12` : pIC50 is 6.57

###

Biological target: UniProt:Q86X55
Sequence (Q86X55 whole entry): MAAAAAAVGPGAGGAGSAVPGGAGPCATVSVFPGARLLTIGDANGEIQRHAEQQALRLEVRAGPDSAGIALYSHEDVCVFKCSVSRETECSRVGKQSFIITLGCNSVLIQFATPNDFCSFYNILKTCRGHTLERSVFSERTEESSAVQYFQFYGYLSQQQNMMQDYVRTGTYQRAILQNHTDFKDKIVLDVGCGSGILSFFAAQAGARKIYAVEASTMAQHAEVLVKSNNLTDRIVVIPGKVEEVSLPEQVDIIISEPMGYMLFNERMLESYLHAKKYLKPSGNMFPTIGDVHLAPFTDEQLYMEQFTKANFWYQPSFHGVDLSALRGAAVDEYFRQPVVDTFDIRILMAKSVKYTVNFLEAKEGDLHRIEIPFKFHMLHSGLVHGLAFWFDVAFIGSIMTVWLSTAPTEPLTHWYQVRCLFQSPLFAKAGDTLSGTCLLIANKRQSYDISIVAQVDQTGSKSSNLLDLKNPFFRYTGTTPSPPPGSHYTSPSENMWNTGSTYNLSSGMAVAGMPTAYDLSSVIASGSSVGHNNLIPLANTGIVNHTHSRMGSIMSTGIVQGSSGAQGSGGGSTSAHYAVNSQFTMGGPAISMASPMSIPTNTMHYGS
VALUE_TYPE: pIC50
As a rule, pIC50 stands for the negative log10 of the concentration, concentration in M.

What the record says about `N=C(N)NCCC[C@H](NC(=O)CN)C(=O)N[C@@H](CCCNC(=N)NCCCSC[C@H]1O[C@@H](n2cnc3c(N)ncnc32)[C@H](O)[C@@H]1O)C(N)=O` : pIC50 is 8.55
